- ASSAY SYSTEM: T1, VEGFR2, recombinant cytosolic domain (Fisher Scientific) (UniProt P35968 789-1356, limits assumed)
- T1 construct: domain: cytosolic domain; Analyte in the BIACORE experiment
- T1 sequence (P35968 789-1356 limits assumed): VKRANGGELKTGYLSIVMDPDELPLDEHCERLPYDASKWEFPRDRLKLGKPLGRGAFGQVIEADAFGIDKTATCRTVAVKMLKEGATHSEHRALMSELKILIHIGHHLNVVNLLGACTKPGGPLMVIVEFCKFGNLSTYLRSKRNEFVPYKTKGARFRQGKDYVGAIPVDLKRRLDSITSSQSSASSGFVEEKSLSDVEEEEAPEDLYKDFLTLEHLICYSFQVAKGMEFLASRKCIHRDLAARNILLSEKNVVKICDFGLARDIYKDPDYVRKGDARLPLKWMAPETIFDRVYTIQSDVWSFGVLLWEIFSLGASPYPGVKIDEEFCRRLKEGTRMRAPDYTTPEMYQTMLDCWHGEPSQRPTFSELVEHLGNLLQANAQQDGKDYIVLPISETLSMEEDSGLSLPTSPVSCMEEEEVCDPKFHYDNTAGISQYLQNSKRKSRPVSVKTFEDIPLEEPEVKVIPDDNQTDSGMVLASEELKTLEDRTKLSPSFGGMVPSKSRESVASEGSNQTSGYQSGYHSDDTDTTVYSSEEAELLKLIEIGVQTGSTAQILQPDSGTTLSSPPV
- ASSAY NOTES: SPR (BIACORE), peptide on avidin-coated chip, recombinant cytosolic domain as analyte
No end group written: not given here.
ASSAY READOUT: Kd (nM)
Answer format: numeric, nM implied, no suffix.

Value of Kd reported for the binder SRGTPVDERLFLIVRVTVQLSHP (also: biotin-tag (position not given here), Immobilised on streptavidin beads (pull-down, mass spectrometry) or on an avidin-coated BIACORE chip) [Biotin-DUF2C5 peptide (synthetic, residues 1238-1260 of KIF13B with a biotin-tag)] is 5.5

Where these numbers come from: patent US20190169241A1
